Reported % reduction of binding by control antibody is given for each of the following binders.
Molecular target: T1, hIL-6R recombinant protein (plate-coated, Example 5) (human, UniProt P08887 20-358, limits assumed)
T1 construct: also called antigen
T1 sequence: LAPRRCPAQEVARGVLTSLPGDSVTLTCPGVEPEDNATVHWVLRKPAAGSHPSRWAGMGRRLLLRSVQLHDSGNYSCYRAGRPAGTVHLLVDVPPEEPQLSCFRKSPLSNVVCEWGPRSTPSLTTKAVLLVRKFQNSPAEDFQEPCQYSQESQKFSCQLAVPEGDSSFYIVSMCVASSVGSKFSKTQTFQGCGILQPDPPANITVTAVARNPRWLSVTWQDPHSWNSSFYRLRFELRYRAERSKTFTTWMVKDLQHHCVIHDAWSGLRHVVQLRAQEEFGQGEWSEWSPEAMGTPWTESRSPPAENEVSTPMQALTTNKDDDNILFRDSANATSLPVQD
Assay: competition ELISA on hIL-6R-coated plate presaturated with competitor control antibody; test antibody 50 ng/ml
Number in %, nothing else.

Below, each entry is followed by its recorded % reduction of binding by control antibody result.
| Binder | Unit | Experimental result |
| --- | --- | --- |
| VV6C10-3 (antibody, V domains shown, Human variable regions with mouse constant region) VH: QVQLVQSGAEVKKPGASVKVSCKASGFNFFHYGITWVRQAPGQGLEWMGWISTYNGDTIYAQKVQGRVTMTTDTATSTAYMELRSLRSDDTAVYYCARSEQQVDYYFYGMDVWGQGTTVTVSS VL: EIVLTQSPATLSLSPGERATLSCRASQSVSSYLAWYQQKPGQAPRLLIYDASNRATGIPARFSGSGSGTDFTLTISSLEPEDFAFYYCQQRNNRPPFTFGPGTKVDVR | % | 1 |
| VQ8F11-21 (antibody, V domains shown, Human variable regions with mouse constant region; also called VQ8F11-21 mIgG2a) VH: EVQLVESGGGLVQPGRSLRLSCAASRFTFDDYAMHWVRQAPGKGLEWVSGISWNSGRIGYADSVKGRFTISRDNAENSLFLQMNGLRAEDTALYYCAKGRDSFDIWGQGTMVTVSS VL: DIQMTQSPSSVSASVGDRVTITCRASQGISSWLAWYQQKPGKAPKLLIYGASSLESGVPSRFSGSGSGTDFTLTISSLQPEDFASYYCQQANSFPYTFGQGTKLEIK | % | 79 |

Give me measured % reduction of binding by control antibody, please, for this binder: VV6A9-5 (antibody, V domains shown, Human variable regions with mouse constant region; also called VV6A9-5 mIgG2a) VH: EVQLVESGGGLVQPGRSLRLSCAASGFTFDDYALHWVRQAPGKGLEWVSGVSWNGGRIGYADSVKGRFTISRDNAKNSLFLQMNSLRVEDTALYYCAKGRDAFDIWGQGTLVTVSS VL: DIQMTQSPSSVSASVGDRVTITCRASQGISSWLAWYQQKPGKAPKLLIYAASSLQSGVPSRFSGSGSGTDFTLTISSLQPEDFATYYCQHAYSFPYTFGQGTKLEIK 84
